// provenance: ChEMBL document CHEMBL3430912

# System: Trypanosoma brucei brucei
# method-notes: GSK_TCAKS: pIC50 Trypanosoma brucei viability assay using fluorescence intensity. Assay plates (1536-well) were prepared by dispensing 25nL of compound solution per well using an Echo acoustic dispenser (Labcyte).
# Type: functional, organism-based
# measurement-parameters: Lister 427, 2 h
Please use the following IC50 ranges when assigning a class: 1 (below 0.8 µM), 2 (0.8 µM to below 8 µM), 3 (8 µM or more)

compound="CCS(=O)(=O)Nc1ccc(C2=NN(C(=O)c3cccs3)C(c3ccccc3OC)C2)cc1 (configuration not stated)" group=2
compound=CCn1c(NC(=O)Cc2ccc(F)cc2)nc2ccccc21 group=2
compound=COc1ccc(C(=O)[C@H]2C[C@@H]2CN(Cc2ccccn2)Cc2ccccn2)cc1 group=2
compound="CCN(Cc1nc2ccc(C(=O)N3CCN(c4ncccn4)CC3)cc2[nH]1)C1CCCc2cccnc21 (configuration not stated)" group=2
compound=Cc1cc(NC(=O)C2CC2)ccc1OC1CCN(Cc2ccco2)CC1 group=1
compound=NCc1ccc2c(Cl)cc(Cl)c(O)c2n1 group=1
compound="Nc1ncnc2c1ncn2[C@@H]1O[C@H](CO)C[C@H]1O [CORDYCEPIN]" group=1
compound=CS(=O)(=O)c1ccc(CC(=O)Nc2nc(-c3ccc(Cl)s3)cs2)cc1 group=3
compound="CC1=C(C(=O)Nc2ccc(Cl)cc2)C(c2ccncc2)n2ncc(C(=O)Nc3ccccc3)c2N1 (configuration not stated)" group=2
compound=COc1cnc2ccc(=O)n(CCN3CCC(NC(=O)Cc4ccc(Cl)c(Cl)c4)CC3)c2c1 group=1
compound=CC(C)Nc1nc(Cl)nc2ccccc12 group=2
compound="COc1ccc(C(=O)N2CCC(Nc3cccnc3)C2)c(OC)n1 (configuration not stated)" group=3
compound=Cc1cnc(Nc2cc(Cc3ccccc3)nc(N[C@H]3CC[C@H](O)CC3)n2)s1 group=1
compound=O=C(c1cccc(Cl)c1Cl)N1CCn2c1nc(-c1ccncc1)cc2=O group=3
compound=Cc1cc(C)n(-c2nc(NC(C)(C)C)nc(N3CCOCC3)n2)n1 group=3
compound=O=C(Nc1ccc(S(=O)(=O)N2CCCC2)cc1)c1ccc([N+](=O)[O-])s1 group=1
compound=CCCCN(C(=O)c1ccc(NC(=O)C(C)C)cc1)c1ccccc1 group=3
compound=c1ccc(CCNCc2cncc3nc(-c4cnccn4)n(C4CCCCC4)c23)cc1 group=3
compound="CC(Cn1ccnc1)NC(=O)COc1ccc(Cl)c(Cl)c1 (configuration not stated)" group=3
compound=Cc1c(C(=O)NCCCCn2ccnc2)oc2c(C)cccc12 group=3

----------
# Tested on: Leishmania donovani
# method-notes: GSK_TCAKS: pIC50 Leishmania donovani viability assay using fluorescence intensity. Assay plates (1536-well) were prepared by adding 30nL per well of compound. For single shot assay, the final compound concentration was 5uM. […] Briefly, eGFP LdBOB axenic amastigotes were harvested, fixed and counted in a CASY cell counter (Roche-Applied Science). A final concentration of 1.5 * 10^5 cells per well were prepared in amastigote media containing 500 U/mL penicillin/streptomycin (Invitrogen) and 6uL was dispensed to each experimental well using a Multidrop Combi dispenser (Thermo Scientific). 6uL of assay media was dispensed to control columns used as reference for 100% compound response. Following incubation for 72 h at 37C, 5% CO2, 2 uL of resazurin was added to each well at a final concentration of 0.5 mM in phosphate buffered saline (PBS) with IGEPAL (Sigma-Aldrich), 0.05% (v/v).
# Assay type: functional, organism-based
measurement-label: IC50 (µM)

molecule=COc1cc(-c2noc(CC#N)n2)ccc1OC(F)F measurement_label=IC50 relational_operator=> measured_number=50.1
molecule=COc1cnc2ccc(=O)n(CCN3CCC(NC(=O)Cc4ccc(Cl)c(Cl)c4)CC3)c2c1 measurement_label=IC50 relational_operator== measured_number=5.01
molecule=O=C1NCc2cccc(Nc3nc(N[C@H]4CC[C@H](O)CC4)ncc3Br)c21 measurement_label=IC50 relational_operator== measured_number=0.794
molecule="O=C(NC(c1ccc(Cl)cc1)c1cnccn1)C1CCN(C(=O)Nc2cccc(C(F)(F)F)c2)CC1 (stereo not given)" measurement_label=IC50 relational_operator== measured_number=20
molecule=O=C(NCCNc1noc(-c2ccc([N+](=O)[O-])cc2)n1)c1ccc(Cl)cc1 measurement_label=IC50 relational_operator=> measured_number=50.1
molecule=O=S(=O)(c1cccc(CSc2nnc(-c3ccc4c(c3)OCO4)o2)c1)N1CCOCC1 measurement_label=IC50 relational_operator== measured_number=0.501
molecule=O=C(NCC1CCCCC1)c1cc(=O)c2ccccc2o1 measurement_label=IC50 relational_operator== measured_number=5.01
molecule="O=C(NCc1ccc(Cl)cc1)C1CN(C(=O)c2ccc(F)cc2)CCS1 (stereo not given)" measurement_label=IC50 relational_operator=> measured_number=50.1
molecule=CC(=O)Nc1ccc(Nc2nccc(-c3cnn4ncccc34)n2)cc1C(F)(F)F measurement_label=IC50 relational_operator== measured_number=0.2
molecule=Cc1cc(C)n(-c2nc(NC(C)(C)C)nc(N3CCOCC3)n2)n1 measurement_label=IC50 relational_operator== measured_number=6.31

----------
# Test system: Leishmania donovani
# method-notes: GSK_TCAKS: pIC50 Leishmania donovani Imaging: Infected Macrophages. Assay plates (384-well) were prepared by adding 250nL of compound to each well. For single shot assay, the final compound concentration was 5 uM. […] Automated image analysis was performed with a script developed on Acapella High Content Imaging and Analysis Software (PerkinElmer). Output: Percent of infected macrophage cells were reported for each well.
# Assay type: functional, organism-based, Homo sapiens
# measurement-parameters: THP-1
Hi! Could you tag entries with IC50 below 5 µM as criterion met, and those at or above as criterion not met? Much appreciated.

compound=Clc1cc(Br)ccc1OCCCCn1ccnc1 target_or_system="Leishmania donovani" group="criterion not met"
compound="Cc1ccc2c(c1)-c1onc(C(=O)N3CCCCC3c3cccnc3)c1CO2 (configuration not stated)" target_or_system="Leishmania donovani" group="criterion not met"
compound="Cc1nccn1C1CCCN(C(=O)c2cc3c(F)cccc3s2)C1 (configuration not stated)" target_or_system="Leishmania donovani" group="criterion not met"
compound=Oc1c(-c2nnc(Cc3ccc(Cl)cc3)[nH]2)ncc2cccnc12 target_or_system="Leishmania donovani" group="criterion met"
compound=COc1ccc(Nc2nc(-c3ccccn3)cs2)c(OC)c1 target_or_system="Leishmania donovani" group="criterion met"
compound=NCc1csc(Nc2cc(Oc3ccccc3)ncn2)n1 target_or_system="Leishmania donovani" group="criterion not met"
compound=CN(C)S(=O)(=O)c1cccc(C(=O)Nc2nc(-c3ccccn3)cs2)c1 target_or_system="Leishmania donovani" group="criterion not met"
compound=CCOc1ccc(NC(=O)c2ccc(NC(=O)NC3CCCCC3)cc2)cc1 target_or_system="Leishmania donovani" group="criterion not met"
compound=CCOc1ccc(Nc2ccc(S(=O)(=O)N3CCN(C)CC3)cc2[N+](=O)[O-])cc1OCC target_or_system="Leishmania donovani" group="criterion not met"
compound=COc1ccc(S(=O)(=O)Nc2ccc(CN3CCN(C(=O)c4cccc(C#N)c4)CC3)cc2)cc1 target_or_system="Leishmania donovani" group="criterion not met"
compound=O=C(NCC1CCCCC1)c1cc(=O)c2ccccc2o1 target_or_system="Leishmania donovani" group="criterion not met"
compound="Cc1ccccc1NS(=O)(=O)c1ccc2[nH]cc(C(=O)NC3CCCC(C)C3C)c(=O)c2c1 (configuration not stated)" target_or_system="Leishmania donovani" group="criterion not met"
compound=CCn1c(NC(=O)Cc2ccc(F)cc2)nc2ccccc21 target_or_system="Leishmania donovani" group="criterion not met"
compound=O=C(Cn1cnc([N+](=O)[O-])n1)Nc1ccc(Cl)cc1C(=O)c1ccccc1 target_or_system="Leishmania donovani" group="criterion not met"
compound=O=C(Nc1ccc(C(F)(F)F)cc1)Nc1cccc([N+](=O)[O-])c1 target_or_system="Leishmania donovani" group="criterion met"
compound=NC(=O)c1cc(NC(=O)c2ccccc2COc2ccccc2)ccc1Cl target_or_system="Leishmania donovani" group="criterion met"
compound=Cc1nc2c(-c3ncn[nH]3)cc(NC(=O)Cc3ccccc3)cn2c1C target_or_system="Leishmania donovani" group="criterion met"
compound=Cc1cccnc1CN1CCN(CCCOc2ccc(-c3ccc(C(N)=O)cc3)cc2)CC1 target_or_system="Leishmania donovani" group="criterion not met"
compound="Clc1ccc(C(CC2CCCCO2)Cn2cncn2)c(Cl)c1 (configuration not stated)" target_or_system="Leishmania donovani" group="criterion not met"

----------
# target-or-system: Sterol 14-alpha demethylase (Trypanosoma cruzi (strain CL Brener), UniProt Q7Z1V1)
# Sequence (Q7Z1V1 whole entry): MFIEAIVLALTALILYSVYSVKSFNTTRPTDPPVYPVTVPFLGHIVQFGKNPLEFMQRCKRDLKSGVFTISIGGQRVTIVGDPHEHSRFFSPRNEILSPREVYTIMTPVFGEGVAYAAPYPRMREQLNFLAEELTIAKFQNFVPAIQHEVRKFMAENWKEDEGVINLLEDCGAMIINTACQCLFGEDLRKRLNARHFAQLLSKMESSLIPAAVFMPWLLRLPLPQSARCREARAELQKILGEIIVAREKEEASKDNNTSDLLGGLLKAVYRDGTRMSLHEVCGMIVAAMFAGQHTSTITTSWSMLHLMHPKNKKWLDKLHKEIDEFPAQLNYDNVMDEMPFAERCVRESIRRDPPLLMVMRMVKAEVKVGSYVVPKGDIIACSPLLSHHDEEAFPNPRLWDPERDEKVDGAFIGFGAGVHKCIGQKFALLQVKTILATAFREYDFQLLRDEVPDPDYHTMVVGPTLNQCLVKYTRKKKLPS
# method-notes: GSK_TCAKS: pIC50 CYP51 from Trypanosoma cruzi.
measurement-label: log10(IC50) (log10 of the value in µM)

molecule=CS(=O)(=O)c1cccc(CNC(=O)c2cncc(N3CCN(c4ccc(F)cc4)CC3)c2)c1 measured_number=1.10
molecule=Cc1c(Nc2cc(C3CC3)n[nH]2)ccc(C#N)c1Cl measured_number=1.30
molecule=Cc1ncsc1CNc1cnc(-c2ccc3c(c2)OCCO3)c(-c2cnn(C)c2)c1 measured_number=0.90
molecule=CC(C)(C)C(=O)NCCc1csc(-c2ccc(F)cc2)n1 measured_number=1.90
molecule=CS(=O)(=O)N[C@H]1CC[C@@H](Oc2cc3cnccc3cc2-c2ccsc2)CC1 measured_number=-1.60
molecule=Cc1nc(N2CCC(C(=O)N3CCC(O)(c4cccnc4)CC3)CC2)nc2ccc(C(C)C)cc12 measured_number=-0.90
molecule=COc1ccc2ncc(=O)n(CCN3CCC(NCc4ccc(-c5cccs5)cc4)CC3)c2n1 measured_number=1.40
molecule=O=C(NCCc1csc(-c2ccc(F)cc2)n1)c1cccs1 measured_number=1.40
molecule=NC(=O)c1cc(F)ccc1Nc1nc(N[C@H]2CC[C@H](O)CC2)ncc1Cl measured_number=1.50
molecule=O=C(NCc1ccncc1)c1ccccc1N1CCCN(C(=O)Cc2ccc(F)c(F)c2)CC1 measured_number=-1.10
molecule=Cn1nc(-c2ccc(NC(=O)Cc3ccccc3Cl)cc2)c2c(N)ncnc21 measured_number=1.80
molecule=Cc1cc(NC(=O)c2ccc([N+](=O)[O-])s2)ccc1Br measured_number=1.00
molecule="Cc1ccc(Nc2nc(-c3ccccn3)cc(N3CCCC(O)C3)n2)cc1 (stereo unspecified)" measured_number=1.40
molecule=O=C(NCCc1n[nH]c(-c2ccc(F)c(F)c2)n1)C1CCCCC1 measured_number=1.40
molecule=O=[N+]([O-])c1cccc(Nc2cncc(-c3ccccc3CO)c2)c1 measured_number=0.50
molecule="CC(C)N(C(=O)CN1C(=O)C(N)C(=O)N(c2ccccc2)c2ccccc21)c1ccccc1 (stereo unspecified)" measured_number=-0.50
molecule=CNc1nc(C)nc(N2CCc3cc(C(=O)NCc4ccc(-c5nccn5C)cc4Cl)ccc32)n1 measured_number=0.20
molecule=CCS(=O)(=O)c1cccc(C(=O)Nc2nc(-c3ccccn3)cs2)c1 measured_number=1.80
